Quick reference: SI of the listed items.
Target: Dipeptidyl peptidase II and dipeptidyl peptidase IV (DPP2 and DPP4) (Homo sapiens) (UniProt P27487+Q9UHL4)
Experiment: Ratio of IC50 for DPP IV to that of IC50 for DPP II
Format: protein assay

// below: answered compounds
compound	SI
N[C@@H](CCNCCCc1ccccc1)C(=O)N1CCCCC1	> 260000
NCC[C@H](NCc1ccccc1)C(=O)N1CCCCC1	> 80
CN[C@@H](CCNCc1ccc(Cl)cc1)C(=O)N1CCCCC1	> 2700
NCC[C@H](N=C(N)N)C(=O)N1CCCCC1	> 140
CC1CCCN(C(=O)[C@@H](N)CCNCc2ccc(Cl)cc2)C1 (stereo partly specified)	> 440000

Exam item: Would you mind telling me what SI value was observed for `NCC[C@H](N)C(=O)N1CCCCC1` ?
Marked response: > 7600
